# Assayed target: Voltage-gated inwardly rectifying potassium channel KCNH2 (Homo sapiens) (UniProt Q12809)
# Sequence (Q12809 whole entry, looked up): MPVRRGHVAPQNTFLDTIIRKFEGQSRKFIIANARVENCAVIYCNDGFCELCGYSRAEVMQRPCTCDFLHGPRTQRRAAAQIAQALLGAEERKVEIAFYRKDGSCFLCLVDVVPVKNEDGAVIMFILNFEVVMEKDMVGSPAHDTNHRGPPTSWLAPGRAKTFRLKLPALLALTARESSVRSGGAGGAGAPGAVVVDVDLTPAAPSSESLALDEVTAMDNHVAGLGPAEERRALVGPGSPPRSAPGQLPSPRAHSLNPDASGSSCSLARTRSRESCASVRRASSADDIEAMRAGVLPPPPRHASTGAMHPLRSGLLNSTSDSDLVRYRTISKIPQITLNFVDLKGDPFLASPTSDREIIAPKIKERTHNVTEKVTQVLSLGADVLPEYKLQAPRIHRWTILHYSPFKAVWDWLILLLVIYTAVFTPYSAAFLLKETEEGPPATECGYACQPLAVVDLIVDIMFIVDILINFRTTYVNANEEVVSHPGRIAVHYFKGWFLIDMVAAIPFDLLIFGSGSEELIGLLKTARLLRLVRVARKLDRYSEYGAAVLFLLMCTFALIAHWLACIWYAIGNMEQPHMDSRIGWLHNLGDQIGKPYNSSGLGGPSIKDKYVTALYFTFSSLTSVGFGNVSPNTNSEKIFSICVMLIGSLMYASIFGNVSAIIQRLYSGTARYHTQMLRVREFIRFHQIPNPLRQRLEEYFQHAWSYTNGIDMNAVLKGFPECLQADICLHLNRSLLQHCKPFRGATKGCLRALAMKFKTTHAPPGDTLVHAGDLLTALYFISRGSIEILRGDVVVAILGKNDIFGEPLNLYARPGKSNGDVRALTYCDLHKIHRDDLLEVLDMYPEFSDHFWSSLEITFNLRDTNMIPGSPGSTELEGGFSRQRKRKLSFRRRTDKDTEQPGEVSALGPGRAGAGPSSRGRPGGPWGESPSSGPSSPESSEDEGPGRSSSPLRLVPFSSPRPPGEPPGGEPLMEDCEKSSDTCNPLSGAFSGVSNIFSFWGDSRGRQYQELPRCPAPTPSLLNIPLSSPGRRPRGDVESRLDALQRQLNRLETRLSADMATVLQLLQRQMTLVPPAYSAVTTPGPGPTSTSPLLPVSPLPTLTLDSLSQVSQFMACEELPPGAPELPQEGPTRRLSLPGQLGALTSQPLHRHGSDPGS
# Procedure summary: qHTS Assay for Small Molecule Inhibitors of the Human hERG Channel Activity (AID 588834);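 further: lower thallium flux fluorescence means stronger hERG block; nearly all actives have a fitted effect of over 50% in size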
# Measurement context: U2OS BacMam hERG, FluxOR thallium flux fluorescence; series mostly up to 46.1 µM
Inconclusive results are not listed. Activity calls are given as the source filed them. The call rests on the fitted dose curve; in most records, active means well fitted inhibition curve with a large enough effect; inconclusive means small, poorly fitted or top-dose-only effect; inactive means flat fitted curve, though single readings scatter.
Labels: true (1) (active), false (0) (inactive)

>>> class_name("Oc1c(Cl)cc(Cl)c2cccnc12")
"false (0)"
>>> class_name("Cn1c(=O)c2c(ncn2CC(O)CO)n(C)c1=O (stereo not given)")
"false (0)"
>>> class_name("Cc1nnc(NS(=O)(=O)c2ccc(N)cc2)s1")
"false (0)"
>>> class_name("O=c1cc(O)c(Cl)c[nH]1")
"false (0)"
>>> class_name("N[C@@H](C(=O)N[C@@H]1C(=O)N2C(C(=O)O)=C(Cl)CS[C@H]12)c1ccccc1")
"false (0)"
>>> class_name("COc1ccc2cc3[n+](cc2c1OC)CCc1cc2c(cc1-3)OCO2")
"false (0)"
>>> class_name("CCC(=O)O[C@]1(C(=O)CCl)[C@@H](C)C[C@H]2[C@@H]3CCC4=CC(=O)C=C[C@]4(C)[C@@]3(F)[C@@H](O)C[C@@]21C")
"false (0)"
>>> class_name("Clc1ccccc1CN1CCc2sccc2C1")
"true (1)"
>>> class_name("O=S(=O)(c1cccc2cnccc12)N1CCCNCC1")
"false (0)"
>>> class_name("CO[C@@]12[C@H](COC(N)=O)C3=C(C(=O)C(C)=C(N)C3=O)N1C[C@@H]1N[C@@H]12")
"false (0)"
>>> class_name("O=c1oc2c(O)c(O)cc3c(=O)oc4c(O)c(O)cc1c4c23")
"false (0)"
>>> class_name("C[C@]12C=CC(=O)C=C1CC[C@@H]1[C@@H]2C(=O)C[C@@]2(C)[C@H]1CC[C@]2(O)C(=O)CO")
"false (0)"
>>> class_name("CN1CCN(c2c(F)cc3c(=O)c(C(=O)O)cn(CCF)c3c2F)CC1")
"false (0)"
>>> class_name("C#CCN[C@@H]1CCc2ccccc21")
"false (0)"
>>> class_name("CC(C)(C#N)c1cc(Cn2cncn2)cc(C(C)(C)C#N)c1")
"false (0)"
>>> class_name("COc1ccc(-c2ccc3cc(C(=O)O)ccc3c2)cc1C12CC3CC(CC(C3)C1)C2")
"false (0)"
>>> class_name("Nc1nc(N)c2nc(CNc3ccc(C(=O)NC(CCC(=O)O)C(=O)O)cc3)cnc2n1 (stereo not given)")
"false (0)"
>>> class_name("NC(N)=NC(N)=NCCc1ccccc1")
"false (0)"
>>> class_name("CCC(=O)O[C@]1(C(=O)SCF)[C@H](C)C[C@H]2[C@@H]3C[C@H](F)C4=CC(=O)C=C[C@]4(C)[C@@]3(F)[C@@H](O)C[C@@]21C")
"false (0)"
>>> class_name("Cc1noc(NS(=O)(=O)c2ccc(N)cc2)c1C")
"false (0)"
>>> class_name("OC(Cn1cncn1)(Cn1cncn1)c1ccc(F)cc1F")
"false (0)"
>>> class_name("COc1c(N2CCNC(C)C2)c(F)cc2c(=O)c(C(=O)O)cn(C3CC3)c12 (stereo not given)")
"false (0)"
>>> class_name("COc1cc(NS(=O)(=O)c2ccc(N)cc2)nc(OC)n1")
"false (0)"
>>> class_name("CCN[C@H]1C[C@H](C)S(=O)(=O)c2sc(S(N)(=O)=O)cc21")
"false (0)"
>>> class_name("CCC(C)(C)c1ccc(CC(C)CN2C[C@@H](C)O[C@@H](C)C2)cc1 (stereo not given in full)")
"true (1)"
>>> class_name("CN(CCOc1ccc(CC2SC(=O)NC2=O)cc1)c1ccccn1 (stereo not given)")
"false (0)"
>>> class_name("CC[C@H](NC(C)C)[C@H](O)c1ccc(O)c2[nH]c(=O)ccc12")
"false (0)"
>>> class_name("O=C(O)c1cc(=O)[nH]c(=O)[nH]1")
"false (0)"
>>> class_name("COc1cccc(N(C)C(=S)Oc2ccc3c(c2)CCCC3)n1")
"true (1)"
>>> class_name("COc1cc2ncnc(Nc3cccc(Cl)c3)c2cc1OC")
"false (0)"
